System: SEM cells
protocol_description: cell viability relative to DMSO control; higher = less cytotoxic
condition_label: RPMI 5 mM glucose + 10% FBS; 48 h; 0.00234 µM
measurement_type: cell viability (%)
A number alone suffices; assume %.

Q) Given the entry CN1\N=N/C2=C(N=C[N]2C1=O)C(N)=O , report its measured cell viability.
A) 102

Q) Form field: reported cell viability of O=C(NCCCNc1nc(Nc2cccc(NC(=O)N3CCCC3)c2)ncc1I)c1cccs1
A) 124

Q) Could you tell me which cell viability is on file for CC(Cc1ccc(O)c(O)c1)(NN)C(=O)O (stereo not given) ?
A) 130

Q) Report cell viability for COc1ccccc1OCCNCC(O)COc1cccc2[nH]c3ccccc3c12 (stereo not given) please.
A) 114

Q) Requested field: cell viability. Item: NC(=O)c1ccc(-c2nc(-c3ccc4c(c3)OCO4)c(-c3ccccn3)[nH]2)cc1
A) 85.5

Q) Please report the recorded cell viability for NC(=O)c1cnc(-c2ccc(C3(N)CCC3)cc2)c(-c2ccccc2)c1 .
A) 134

Q) Given O=C(C1CC1)N1CC[C@@H](Cn2c(-c3ccc(-c4ccc5occc5c4)cc3)nc3cnccc32)C1 , state its recorded cell viability.
A) 89.5

Q) Quick one: cell viability for Cn1cc(-c2cnn3c(N)c(Br)c([C@@H]4CCCNC4)nc23)cn1 ?
A) 99.9

Q) For CCCCCCCCOc1ccccc1C(=O)Nc1ccc(C(=O)OCC[N+](C)(CC)CC)cc1 , what is its reported cell viability?
A) 93

Q) Recorded cell viability for O=[S+]([O-])(/N=C/c1c(O)ccc2ccccc12)c1cccs1 , please?
A) 116

Q) # get_value(readout='cell viability', item= CCCc1nc2c(C)cc(-c3nc4ccccc4n3C)cc2n1Cc1ccc(-c2ccccc2C(=O)O)cc1 )
A) 121

Q) // returns reported cell viability for input Oc1cc2c(cc1O)C1c3ccc(O)c(O)c3OCC1(O)C2 (stereo not given)
A) 36.7

Q) Param item = Cn1c(=O)c2[nH]cnc2n(C)c1=O ; retrieve measured cell viability.
A) 107

Q) Quick check: cell viability of CCCCOc1ccc(CC(=O)NO)cc1 ?
A) 99.5

Q) Give its cell viability value. Item: Cc1cc(SCc2sc(-c3ccc(C(F)(F)F)cc3)nc2C)ccc1OCC(=O)O
A) 101

Q) Item under review: CCc1c(O)cc(O)c(C(=O)c2ccc(OCCN3CCOCC3)c(OC)c2)c1CC(=O)N(CCOC)CCOC . Reported cell viability?
A) 116

Q) Returns the measured cell viability for the input molecule. Input: CC(=O)Oc1cc2c(s1)CCN(C(C(=O)C1CC1)c1ccccc1F)C2.Cl (stereo not given)
A) 96.9

Q) What value of cell viability has been reported for the following molecule? OC(CCN1CCCCC1)(C2CC\3CC2\C=C3)C4=CC=CC=C4 (stereo not given)
A) 126

Q) Entry C[C@H]1C[C@H]2[C@@H]3CCC4=CC(=O)C=C[C@]4(C)[C@H]3C(=O)C[C@]2(C)[C@@]1(O)C(=O)CO has what cell viability?
A) 81.3

Q) Request the reported cell viability associated with C[C@@H](NCc1cc2ccccc2[nH]1)c1cccc2ccccc12
A) 86.6
